# Test system: HOP-92
# experimentDescription: Antiproliferative activity against human HOP92 cells after 48 hrs by SRB protein assay
# Assay type: functional
# conditions: HOP-92, 48 h
Each entry below lists one item and its recorded GI50 value.
Write it as a number; the unit µM goes unstated.

>  <smilesEntry>
N#Cc1c(N)nc(N2CCOCC2)c(C#N)c1-c1ccc(Cl)cc1

>  <quantity>
GI50

>  <recordedNumber>
8.91

$$$$

API: value(readout= GI50, system= HOP-92, query= N#Cc1c(N)nc(N2CCSCC2)c(C#N)c1-c1ccc(O)cc1 )
10

Now the compound N#Cc1c(NCc2ccccc2)nc(NCc2ccccc2)c(C#N)c1-c1cccc(O)c1
2.51

Now the compound N#Cc1c(N)nc(N2CCOCC2)c(C#N)c1-c1ccc(Cl)cc1Cl
3.31

# credit: ChEMBL document CHEMBL1139048
